experimentalProtocol: Cytotoxicity against mouse BV2 cells assessed as cell viability at 20 uM after 24 hrs by XTT assay relative to control
Format: cell-based, BV-2
particulars: read-out: Activity
parameter: viability at 24 h, 20 µM (%)

- smilesStr: "O=c1c(-c2ccc(O)cc2)coc2cc(O)ccc12"
  quantityUnit: "%"
  valueQualifier: ">"
  valueMeasured: 80
- smilesStr: "C#Cc1coc2cc(OC)ccc2c1=O"
  quantityUnit: "%"
  valueQualifier: "="
  valueMeasured: 49
- smilesStr: "COc1ccc(-c2coc3cc(O)cc(O)c3c2=O)cc1"
  quantityUnit: "%"
  valueQualifier: "="
  valueMeasured: 76
